# TEST TARGET: T1, human neonatal Fc receptor (hFcRn) (human, UniProt P55899 24-290; P61769 21-119)
# T1 construct: Biotinylated in the ELISA, Octet and yeast assays; also called human FcRn; huFcRn
# T1 sequence (P55899 24-290 limits assumed, chain 1 of 2): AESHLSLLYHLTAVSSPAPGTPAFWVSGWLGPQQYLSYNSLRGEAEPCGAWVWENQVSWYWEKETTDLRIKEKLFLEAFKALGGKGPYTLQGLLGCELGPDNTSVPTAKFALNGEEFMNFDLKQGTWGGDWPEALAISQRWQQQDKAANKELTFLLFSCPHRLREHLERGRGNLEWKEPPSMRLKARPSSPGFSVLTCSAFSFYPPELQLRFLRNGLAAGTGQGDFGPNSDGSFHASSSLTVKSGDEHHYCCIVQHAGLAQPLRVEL
# T1 sequence (P61769 21-119 limits assumed, chain 2 of 2): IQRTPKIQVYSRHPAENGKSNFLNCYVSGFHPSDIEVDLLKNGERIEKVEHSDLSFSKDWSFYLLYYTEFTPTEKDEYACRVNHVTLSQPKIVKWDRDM
# EXPERIMENT DESCRIPTION: phage ELISA pH 7.4;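 note: higher score means stronger binding and above about 3 to 5 exceeds background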
PARAMETER MEASURED: ELISA score
I'd appreciate a reply containing only the number, no unit.

Entry L6A isolate with insertion SEQ ID NO: 465 (other) EPKSCDKTHTCPPCPAPELLGGPSVFLFPPKPKDTLMISRTPEVTCVVVDVSHEDPEVKFNWYVDGVEVHNAKTKPREEQYNSTYRVVSVLTVLHQDWLNGKEYKCKVSNKALPAPIEKTISKAKGQPREPQVYTLPPSRDELGGCFTNYASEKCGGTKNQVSLTCLVKGFYPSDIAVEWESNGQPENNYKTTPPVLDSDGSFFLYSKLTVDKSRWQQGNVFSCSVMHEALHNHYTQKSLSLSPGK has what ELISA score?
0.3

Now consider L5 isolate with insertion SEQ ID NO: 461 (other) EPKSCDKTHTCPPCPAPELLGGPSVFLFPPKPKDTLMISRTPEVTCVVVDVSHEDPEVKFNWYVDGVEVHNAKTKPREEQYNSTYRVVSVLTVLHQDWLNGKEYKCKVSNKALPAPIEKTISKAKGQPREPQVYTLPPSRDELTKNQVSLTCLVKGFYPSDIAVEWESNGGCKWSMTKCGGGQPENNYKTTPPVLDSDGSFFLYSKLTVDKSRWQQGNVFSCSVMHEALHNHYTQKSLSLSPGK and answer again.
0.9
